molecular target: Protein cereblon/Histone acetyltransferase p300 (Homo sapiens) (UniProt Q09472+Q96SW2); assay: PROTAC activity at CRBN/HiBiT-tagged p300 in human HAP1 cells assessed as total cumulative degradation by measuring AUC at 10 nM measured over 24 hrs by luminescence based analysis; type: cell-based; further: unit not given here
Sequence (Q09472 2-2414 limits assumed): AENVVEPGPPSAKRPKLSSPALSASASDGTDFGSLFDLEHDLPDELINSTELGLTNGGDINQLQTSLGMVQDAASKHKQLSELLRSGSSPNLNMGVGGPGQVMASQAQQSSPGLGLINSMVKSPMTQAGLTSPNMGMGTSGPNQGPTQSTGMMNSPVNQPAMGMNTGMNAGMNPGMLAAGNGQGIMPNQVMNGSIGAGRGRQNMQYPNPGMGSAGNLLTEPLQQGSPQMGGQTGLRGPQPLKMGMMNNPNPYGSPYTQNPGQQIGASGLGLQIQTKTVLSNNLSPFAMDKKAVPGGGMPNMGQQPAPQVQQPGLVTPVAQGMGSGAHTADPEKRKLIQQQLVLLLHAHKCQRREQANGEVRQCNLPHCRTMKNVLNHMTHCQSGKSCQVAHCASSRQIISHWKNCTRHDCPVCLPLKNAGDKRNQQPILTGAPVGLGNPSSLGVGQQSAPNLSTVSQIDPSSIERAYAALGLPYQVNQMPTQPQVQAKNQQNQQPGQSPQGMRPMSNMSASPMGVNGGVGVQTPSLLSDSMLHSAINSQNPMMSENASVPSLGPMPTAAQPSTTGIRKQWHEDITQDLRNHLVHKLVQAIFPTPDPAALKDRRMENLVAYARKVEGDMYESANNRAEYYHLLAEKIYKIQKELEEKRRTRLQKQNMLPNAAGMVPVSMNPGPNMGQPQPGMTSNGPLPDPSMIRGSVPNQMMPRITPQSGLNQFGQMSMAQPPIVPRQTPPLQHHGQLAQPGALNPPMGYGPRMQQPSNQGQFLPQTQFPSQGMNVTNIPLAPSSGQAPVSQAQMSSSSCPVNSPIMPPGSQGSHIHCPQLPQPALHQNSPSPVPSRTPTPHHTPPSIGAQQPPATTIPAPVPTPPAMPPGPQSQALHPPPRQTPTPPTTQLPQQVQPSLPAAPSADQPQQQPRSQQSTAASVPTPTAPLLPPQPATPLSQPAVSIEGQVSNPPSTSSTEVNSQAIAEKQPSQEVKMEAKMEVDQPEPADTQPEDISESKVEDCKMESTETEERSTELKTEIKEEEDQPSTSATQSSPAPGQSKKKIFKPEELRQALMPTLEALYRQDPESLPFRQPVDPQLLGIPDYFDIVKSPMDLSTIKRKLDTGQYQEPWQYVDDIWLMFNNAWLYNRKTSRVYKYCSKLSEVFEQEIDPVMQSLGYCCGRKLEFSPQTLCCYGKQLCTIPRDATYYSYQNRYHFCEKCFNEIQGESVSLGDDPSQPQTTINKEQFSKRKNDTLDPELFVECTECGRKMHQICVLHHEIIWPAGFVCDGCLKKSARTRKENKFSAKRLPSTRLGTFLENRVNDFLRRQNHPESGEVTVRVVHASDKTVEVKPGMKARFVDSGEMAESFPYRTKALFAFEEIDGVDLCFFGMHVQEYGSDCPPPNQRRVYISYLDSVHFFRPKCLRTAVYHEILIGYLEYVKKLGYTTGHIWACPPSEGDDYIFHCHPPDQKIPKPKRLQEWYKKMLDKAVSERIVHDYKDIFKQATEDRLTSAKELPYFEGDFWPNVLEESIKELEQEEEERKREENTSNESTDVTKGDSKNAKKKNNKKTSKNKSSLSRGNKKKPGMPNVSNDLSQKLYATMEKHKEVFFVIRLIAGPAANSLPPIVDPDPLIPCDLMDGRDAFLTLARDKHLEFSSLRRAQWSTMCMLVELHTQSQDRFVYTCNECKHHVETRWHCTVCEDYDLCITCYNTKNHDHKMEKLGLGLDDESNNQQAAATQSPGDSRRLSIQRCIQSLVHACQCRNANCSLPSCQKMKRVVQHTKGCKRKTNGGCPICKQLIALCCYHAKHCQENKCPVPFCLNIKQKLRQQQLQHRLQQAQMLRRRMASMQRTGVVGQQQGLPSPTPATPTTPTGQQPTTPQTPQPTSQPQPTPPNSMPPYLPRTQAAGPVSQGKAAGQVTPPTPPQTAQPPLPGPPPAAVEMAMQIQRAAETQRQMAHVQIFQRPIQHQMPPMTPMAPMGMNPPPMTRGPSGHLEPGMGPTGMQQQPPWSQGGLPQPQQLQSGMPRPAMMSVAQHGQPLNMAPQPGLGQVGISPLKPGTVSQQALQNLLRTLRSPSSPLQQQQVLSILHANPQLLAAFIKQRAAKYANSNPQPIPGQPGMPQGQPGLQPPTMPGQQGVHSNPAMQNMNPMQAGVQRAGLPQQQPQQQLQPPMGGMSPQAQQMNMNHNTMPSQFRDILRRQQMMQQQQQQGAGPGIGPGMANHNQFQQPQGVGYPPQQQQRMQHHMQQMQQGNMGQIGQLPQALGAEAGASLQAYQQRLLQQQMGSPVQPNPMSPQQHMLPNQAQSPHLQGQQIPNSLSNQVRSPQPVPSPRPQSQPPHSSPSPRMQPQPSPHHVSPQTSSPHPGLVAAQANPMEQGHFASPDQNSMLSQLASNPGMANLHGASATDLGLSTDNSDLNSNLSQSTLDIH
Sequence (Q96SW2 whole entry partner): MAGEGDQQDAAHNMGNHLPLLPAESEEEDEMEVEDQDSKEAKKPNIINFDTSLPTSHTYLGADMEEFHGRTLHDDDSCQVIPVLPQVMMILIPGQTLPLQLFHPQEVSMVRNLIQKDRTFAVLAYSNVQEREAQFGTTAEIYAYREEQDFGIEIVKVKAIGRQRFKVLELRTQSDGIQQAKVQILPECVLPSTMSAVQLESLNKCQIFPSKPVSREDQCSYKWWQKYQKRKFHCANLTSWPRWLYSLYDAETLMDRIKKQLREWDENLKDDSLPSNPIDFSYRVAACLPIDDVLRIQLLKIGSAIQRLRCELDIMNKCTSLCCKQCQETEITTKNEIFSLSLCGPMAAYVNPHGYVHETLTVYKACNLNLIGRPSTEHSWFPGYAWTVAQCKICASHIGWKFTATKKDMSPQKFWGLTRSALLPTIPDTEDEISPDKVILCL
We begin with a simple list: items and their reported AUC.

# Molecule, AUC
data = [
    ("CNC(=O)N1CCc2c(c(N3CCN(C(=O)NCCOCCOCCOCCOCCOCCOCCNc4ccc5c(c4)C(=O)N(C4CCC(=O)NC4=O)C5=O)c4cc(-c5cnn(C)c5)c(C(F)(F)F)cc43)nn2C2CCOCC2)C1 (stereo not drawn)", 26.4),
    ("CNC(=O)N1CCc2c(c(N3CCCc4cc(-c5cnn(C)c5)c(C(F)F)cc43)nn2C2CCN(C(=O)CCOCCOCCOCCOCCOCCOCCNc3ccc4c(c3)C(=O)N(C3CCC(=O)NC3=O)C4=O)CC2)C1 (stereo not drawn)", 9.3),
    ("CNC(=O)N1CCc2c(c(N3CCN(C(=O)NCCOCCNc4ccc5c(c4)C(=O)N(C4CCC(=O)NC4=O)C5=O)c4cc(-c5cnn(C)c5)c(C(F)(F)F)cc43)nn2C2CCOCC2)C1 (stereo not drawn)", 27),
]
